Please go through the items and note down their pKi.
- Tested System: Cannabinoid receptor 2 (Homo sapiens, UniProt P34972)
- Sequence (P34972 whole entry): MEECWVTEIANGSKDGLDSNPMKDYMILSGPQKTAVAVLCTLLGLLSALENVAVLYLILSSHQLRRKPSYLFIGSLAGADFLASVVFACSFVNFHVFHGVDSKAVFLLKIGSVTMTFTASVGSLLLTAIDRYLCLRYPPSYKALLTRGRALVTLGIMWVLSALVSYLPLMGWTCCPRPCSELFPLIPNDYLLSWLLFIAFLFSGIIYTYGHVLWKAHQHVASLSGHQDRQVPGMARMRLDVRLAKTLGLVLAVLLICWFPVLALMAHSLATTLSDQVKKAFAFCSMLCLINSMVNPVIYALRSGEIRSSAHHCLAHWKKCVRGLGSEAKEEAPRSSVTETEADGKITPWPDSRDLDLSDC
- Assay Overview: Displacement of [3H]CP55940 from recombinant human CB2R expressed in HEK293 cell membranes measured after 90 mins
Answers are plain numbers, as −log10 of the molar value.

Take a look at these entries with their results.
Mol Smiles	pKi
COC(=O)c1c(NC(=O)NC23CC4CC(CC(C4)C2)C3)sc2c1CCCC2	7.68
COC(=O)c1c(NC(=O)C23CC4CC(CC(C4)C2)C3)cnn1C	5.97
CCc1c(C)sc(NC(=O)c2ccc(F)cc2)c1C(=O)OC	6.30
COC(=O)c1c(NC(=O)C23CC4CC(CC(C4)C2)C3)sc(C)c1C	8.03
CCCc1cc(C(=O)OC)c(NC(=O)C23CC4CC(CC(C4)C2)C3)s1	8.14
COC(=O)c1cc(-c2ccccc2)sc1NC(=O)C12CC3CC(CC(C3)C1)C2	8.19
COC(=O)c1c(NC(=O)C23CC4CC(CC(C4)C2)C3)sc2c1CCCC2	8.29
COC(=O)c1c(C)noc1NC(=O)C12CC3CC(CC(C3)C1)C2	7.19
COC(=O)c1c(NC(=O)C23CC4CC(CC(C4)C2)C3)sc2c1CCS(=O)(=O)C2	5.78
COC(=O)c1c(NC(=O)N2CCCCC2)sc2c1CCCC2	6.71

Fill in pKi for each of the 3 compounds listed.
1. COC(=O)c1ccsc1NC(=O)C12CC3CC(CC(C3)C1)C2
2. CCc1c(C)sc(NC(=O)C23CC4CC(CC(C4)C2)C3)c1C(=O)OC
3. COC(=O)c1[nH]ccc1NC(=O)C12CC3CC(CC(C3)C1)C2

[5.88, 8.61, 5.67]
